Value source: ChEMBL document CHEMBL4689842

Tested on: U2OS
Experiment description: Multiplex assay against U2OS
Format: toxicity, cell-based
Condition details: human, 24 h, 10 µM, compound concentration 10 uM, replicate 1
Grouping key: Population Healthy Nuclei (%). Bins: interval 1 (below 50%), interval 2 (50% to below 70%), interval 3 (70% or more)

Worked set:
Molecule	Classification
C[C@]12CC[C@@H]3c4ccc(O)cc4CC[C@H]3[C@@H]1CC[C@@H]2O [ESTRADIOL]	interval 3
C=CC(=O)Nc1ccc2[nH]c(=O)n(C3CCN(Cc4ccc(-c5nc6cc[nH]c(=O)c6cc5-c5ccccc5)cc4)CC3)c2c1 [Borussertib]	interval 3
C=CC(=O)Nc1cccc(Oc2nc(Nc3ccc(N4CCN(C)CC4)cc3OC)ncc2Cl)c1	interval 3
CC(C)OC(=O)N1CCC(Oc2ncnc3c2cnn3-c2ccc(S(C)(=O)=O)cc2F)CC1	interval 3
CC(C)CC(=O)Nc1[nH]nc2c1CN(C(=O)C1CCN(C)CC1)C2(C)C [PHA-793887]	interval 3

The entry to classify is CCCSc1nc(N[C@@H]2C[C@H]2c2ccc(F)c(F)c2)c2nnn([C@@H]3C[C@H](OCCO)[C@@H](O)[C@H]3O)c2n1 [TICAGRELOR] ; which class holds it?
interval 2

###

System: HEK-293T
Experiment description: Incucyte cell viability with HEK293T; note: filed as whole numbers so only -1 and 0 and 1 occur
Type: toxicity, cell-based
Condition details: human, 6 h, 10 µM, compound concentration 10 uM, replicate number 1, timepoint 6 hours
Measured quantity: Growth Rate
Give your answer as a number; write no unit.

Given smiles	Target	Observed measurement
Cl.O=C(O)c1cc(-c2ccc(C3CCNCC3)cc2)c2ccc(-c3ccc(C(F)(F)F)cc3)cc2c1	HEK-293T	0
COC(=O)/C=C/c1cccc(N(Cc2ccc(-c3ccc(N(C)C)cc3)cc2)C(=O)C2CCCCC2)c1	HEK-293T	1

Under HEK-293T: Growth Rate value of `Cc1nc(N2CC[C@H](O)C2)ncc1-c1cc(C(F)(F)F)cc2[nH]ncc12` ?
0

Under HEK-293T: Growth Rate value of `CC(C)(C)NC[C@H](O)COc1nsnc1N1CCOCC1` ?
0

Under HEK-293T: Growth Rate value of `CNCc1ccccc1-c1csc([C@@H](C)Nc2nc(C)nc3cc(OC)c(OC)cc23)c1` ?
0

###

Test system: U2OS
Experiment description: Multiplex assay against U2OS
Format: toxicity, cell-based
Condition details: human, 48 h, 1 µM, compound concentration 1 uM, replicate 2
# note: exactly 4% is not below, so it is false; use true for Population Hoechst High Intensity Objects (%) strictly under it

Given smiles	Classification
CC(C)NC(=O)N1CC[C@H](NC2=Nc3cc(F)ccc3N(CC(F)F)c3ccc(Cl)cc32)C1	false
CCc1ccc(OCc2ccccc2C(=O)Nc2ccc3nc(C)cc(N)c3c2)cc1.Cl	false
CC(C)(C)NC[C@H](O)COc1nsnc1N1CCOCC1	true

Please find the next molecule below.
Find out if reported Population Hoechst High Intensity Objects (%) for `CCCSc1nc(N[C@@H]2C[C@H]2c2ccc(F)c(F)c2)c2nnn([C@@H]3C[C@H](OCCO)[C@@H](O)[C@H]3O)c2n1` is less than 4%
true

###

# Growth Rate per record follows
Tested on: Fibroblast
Experiment description: Incucyte cell viability with human fibroblast; note: filed as whole numbers so only -1 and 0 and 1 occur
Type: toxicity, cell-based
Condition details: 12 h, 10 µM, compound concentration 10 uM, replicate number 2, timepoint 12 hours
Give your answer as a number; write no unit.

Solved cases (5 shown):
Given smiles	Growth Rate
Cl.O=C(O)c1cc(-c2ccc(C3CCNCC3)cc2)c2ccc(-c3ccc(C(F)(F)F)cc3)cc2c1	0
CCOc1cn(-c2ccc(F)cc2C)nc1C(=O)Nc1ccc(Oc2ccnc3cc(OC)c(OC)cc23)c(F)c1	1
CSc1cccnc1N1CCN(Cc2nc3ccccc3[nH]2)CC1	1
CNC(=O)c1ccc(Nc2ncc(C(F)(F)F)c(NCc3nccnc3N(C)S(C)(=O)=O)n2)cc1	1
COc1cc(-c2cn([C@H]3CCc4ccccc4N(CC(F)(F)F)C3=O)nn2)ccc1-n1ccc(C)n1	1

What Growth Rate value was documented for this molecule, `COc1ccccc1CN[C@H]1C2CCN(CC2)[C@H]1C(c1ccccc1)c1ccccc1` ?
0

What Growth Rate value was documented for this molecule, `Nc1ncnc2c1ccn2[C@@H]1O[C@H]([C@H](O)c2ccccc2)[C@@H](O)[C@H]1O` ?
0
